Cited source for all entries: PubChem BioAssay (NCI)

test system: MDA-N; assay: NCI tumour cell line growth inhibition, 48 h
Property Measured: TGI

Check out these entries, answers already filled in.
Compound	TGI
N#CC(C#N)[C@@H]1CCC=C(Sc2ccccc2)[C@H]1Sc1ccccc1	4.41 µM
CCCCCC/C=C\CCCCCCCCCc1cccc(OC)c1O	> 100 µM
CCOC(=O)c1nc2ccc(C(F)(F)F)cc2nc1NCc1ccc(F)cc1	> 100 µM
C#C[C@@H](OC(=O)c1ccc([N+](=O)[O-])cc1)[C@@H]1C[C@H]2O[C@@H]([C@H](C/C=C/CC)OC(=O)c3ccc([N+](=O)[O-])cc3)C[C@H]2O1	> 100 µM
CC(=O)O[C@H]1C(=O)[C@@]2(C)[C@H]([C@H](OC(=O)c3ccccc3)[C@]3(O)C[C@H](OC(=O)[C@H](O)[C@@H](NC(=O)C(C)(O)C(C)O)c4ccccc4)C(C)=C1C3(C)C)[C@]1(OC(C)=O)CO[C@@H]1C[C@@H]2O (some centres undefined)	0.0744 µM

input: Given the compound CNc1ccc(Cl)cc1C(=O)N1CCC[C@H]1CO , write its reported TGI.
output: > 100 µM

input: State its TGI for this compound: O=C1c2ccccc2C(=O)c2c1sc1nc3ccccc3n21
output: 3.49 µM

input: For the compound NC(=S)NN=C1Cc2ccccc2C1 , give its measured TGI value.
output: > 100 µM

input: Determine its reported TGI: CCOc1cc(CCNC)c2c(ccc3ccc(OC)c(O)c32)c1OC
output: 10.5 µM

----------
system: SNB-78 CNS; test: NCI tumour cell line growth inhibition, 48 h
Property Measured: TGI

Compound	TGI
COc1cc(CO)cc2c1[nH]c1ccccc12	> 25 µM
COc1cc2c(cc1OC)C(Cc1cc(Br)c(OC)c(OC)c1)=[N+](C)CC2	> 100 µM
CC(C)(C)c1cc(C#N)c2c(c1)C(=O)OC2(c1ccccc1)c1ccccc1C#N (stereo not drawn)	> 100 µM

input: Provide measured TGI value, entry: CC/C(=N/O)C(C)C(=O)CCC(=O)Nc1ccc(Cl)cc1 (stereo not drawn)
output: > 100 µM

input: Give TGI for C=C(CN(C)C)C(=O)c1ccccc1Cl
output: 83.1 µM

input: Entry NC(=S)N/N=C(/CCN1CCCC1)CC(C1=C(O)C2=CCCCC2OC1=O)c1ccccc1 (stereo not drawn) needs its TGI filled in; supply it.
output: > 100 µM

input: Return TGI for the following compound: CCOC(=O)C1=C(Nc2cccc3ccccc23)OCC1=O
output: > 100 µM

input: Note TGI for the compound shown: CCOc1ccc2c(c1)[n+]([O-])c(-c1ccc([N+](=O)[O-])cc1)c(N)[n+]2[O-]
output: > 100 µM

----------
test system: SNB-75 CNS; assay: NCI tumour cell line growth inhibition, 48 h; in the data active = GI50 below about 0.43 µM; inactive = the rest
Please state which outcome applies, choosing from active, inactive

Compound	Label
Fc1cccc(-c2nc(-c3c[nH]c4ncccc34)cs2)c1	inactive
Nc1ncc(-c2ccc3ncnc(N4CCc5cc(F)c(Cl)cc54)c3c2)cc1C(F)(F)F	active
COc1ccc(/C=C\c2cc(OC)c(OC)c(OC)c2)cc1N/C=C\C(=O)c1c[nH]c2ccccc12	active
CCSc1nnc(-c2ccc3ccccc3c2O)n1-c1ccccc1	inactive
CC(=O)OCCC/C(=C/c1cc2ccccc2c2ccccc12)[N+](=O)[O-]	inactive
COc1ccc(OC)c(-c2nc3sc(C)cn3c2/C=C2\C(=O)N(C)c3ccccc32)c1	inactive
CCN1C(=O)N[C@H]2[C@@H]3NC(=O)c4ccc(Cl)n4[C@@H]3C[C@]21O	inactive
CCC1C[N+]2=C(c3cc(OC)c(OC)cc3CC2)c2c1cc1n2CCc2cc(OC)c(OC)cc2-1 (centres undefined)	inactive

input: Which result was noted for this compound in the test: COc1ccccc1CNC(=O)/C=C/c1ccc(O)c(O)c1
output: inactive

----------
tested on: HT29 colon; test: NCI tumour cell line growth inhibition, 48 h
Peptide text beside a SMILES is read from it. * marks the point of attachment. Cbz = O=C(OCc1ccccc1)*
Some molecules, each annotated with its measured TGI.

# annotated cases, reported TGI shown
Molecule	Property Measured	Experimental Result
Oc1c(O)c(Cc2ccccc2)c(Cc2ccccc2)c(Cc2ccccc2)c1Cc1ccccc1	TGI	> 10 µM
CC1=C(c2ccccc2)CON(c2ccccc2)C1	TGI	> 100 µM
CCCCCCCCCCCc1cc(=O)c2c(O)cccc2o1	TGI	> 100 µM
O=C(Oc1c(Cl)c(Cl)c(Cl)c(Cl)c1Cl)C1CCCN1C(=O)OCc1ccccc1 (stereo not drawn)	TGI	12 µM
CCOC(=O)CCC(NC(=O)CNC(=O)CNC(=O)C(CCC(=O)OCC)NC(=O)C(CCC(=O)OCC)NC(=O)C(CCC(=O)OCC)NC(=O)OCc1ccccc1)C(=O)NC(CCC(=O)OCC)C(=O)NC(CCC(=O)OCC)C(=O)OCC (stereo not drawn) (Cbz-E(OEt)E(OEt)E(OEt)GGE(OEt)E(OEt)E(OEt)-OEt; configuration not given here)	TGI	> 75 µM

input: Please report the measured TGI for COc1ccc(OC)c2c1ccc1c(C)c3ccccc3c(C)c12
output: > 100 µM

input: Report TGI, nothing else, for this molecule: COc1cc(-c2cn(-c3ccc(F)cc3)c(=O)[nH]2)cc(OC)c1OC
output: > 100 µM

input: Answer with the recorded TGI of FC(F)(F)c1nc2c(ccc3[nH]c4c(-c5ccccc5)nccc4c32)[nH]1 only.
output: > 100 µM

----------
As shown below, each of these molecules has a reported GI50 value.
tested on: RXF 393 renal; experiment: NCI tumour cell line growth inhibition, 48 h

Molecule	Property Measured	Experimental Result
CC1=CC[C@@H]2C(=O)C=CC=C[C@H]12.[C-]#[O+].[C-]#[O+].[C-]#[O+].[Fe]	GI50	> 100000 nM
COC(=O)C(Br)(C(=O)OC)C(Br)C(Br)C(Br)c1ccccc1 (configuration not stated)	GI50	1720 nM
CC(C)CCCC(C)[C@H]1CCC2C3CC=C4C[C@@H](OC(=O)CC(CC(=O)[O-])C(=O)[O-])CC[C@]4(C)C3CC[C@@]21C.N.N.[Pt+4] (some centres not stated)	GI50	47100 nM
N#Cc1cc2c(=S)[nH]c(=S)[nH]c2nc1SCc1ccccc1	GI50	31800 nM

input: # return recorded GI50 for entry C=CC(=O)N1CCC(CNc2ncnc(N)c2-c2ccc(Oc3ccccc3)cc2)CC1
output: 22400 nM

input: Give the reported value of GI50 for this record: Nc1nc(N)c2cc(S(=O)(=O)c3ccccc3)ccc2n1
output: 72500 nM

input: Please list GI50 recorded for the molecule NC1=C(/C(N)=N/O)C(c2ccccc2)c2ccc3ccccc3c2O1 (configuration not stated)
output: 249 nM

input: Identify measured GI50 associated with COC(=O)C[C@@H]1CC=CC(=O)/C1=C(O)/C=C/c1ccccc1
output: 295 nM

input: Provide measured GI50 value, entry: CCCCc1n(Cc2ccc3ccccc3n2)cc[n+]1Cc1ccc2ccccc2c1
output: 1220 nM

input: Look up GI50 of CC12OC(C(=O)C13CCC3)C1C(=O)c3c(O)ccc(O)c3C(=O)C12 (configuration not stated) and report it.
output: 1410 nM

input: Please indicate GI50 recorded for CCN(CC)CCC(CNc1c(C)cnc2cc(Cl)ccc12)c1ccc(Cl)c(Cl)c1 (configuration not stated)
output: 2860 nM

input: Provide measured GI50 value, entry: O=C(C[n+]1ccn(CC(OCc2ccc(Cl)cc2Cl)c2ccc(Cl)cc2Cl)c1)c1ccc(F)cc1 (configuration not stated)
output: 1810 nM

----------
test system: HOP-92 NSCLC; test: NCI tumour cell line growth inhibition, 48 h
Property Measured: GI50

Solved cases below.
Molecule	GI50
CN1CCN(c2ccc(NC(=O)c3cncnc3Nc3ccc4c(ccn4Cc4cccc(F)c4)c3)cc2)CC1	3540 nM
COc1ccc(-n2nc(C(=O)NCC(=O)Nc3nc4cc(OC)ccc4s3)c3ccccc3c2=O)cc1	572 nM
Nc1nc(N)c2cc(S(=O)(=O)c3ccccc3)ccc2n1	4640 nM
COC(=O)C[C@@H]1CC=CC(=O)/C1=C(O)/C=C/c1ccccc1	1330 nM
COc1cc(NC(=O)c2cc3ccccc3cc2O)c(OC)cc1Cl	1560 nM
CCSc1nnc(-c2ccc3ccccc3c2O)n1-c1ccccc1	5000 nM
COc1ccc(-n2nc(C(=O)c3ccccc3)c3nn4c(=O)cc(-c5ccccc5)nc4nc32)cc1	37400 nM
COc1ccc(/C=N/C2=NNC(C)(c3ccccc3O)N2C(Cc2c[nH]c3ccccc23)C(=O)O)cc1 (stereo unspecified)	1310 nM
COc1ccccc1N1CCN(CC(O)Cn2c(=O)c3c(OC)nc(C)cc3c(=O)n2-c2ccccc2)CC1 (stereo unspecified)	15700 nM
COc1cc2c3c(n(CCCN=[N+]=[N-])c(=O)c2cc1OC)-c1ccc(NC(C)=O)cc1C3=O	> 50000 nM

input: Please look at this molecule and report its GI50: CCN1Cc2c(/C=C/c3ccccc3)nc3ccc(OC)cc3c2N(c2cccc(Cl)c2)C1
output: 1620 nM

input: Using the record for O=C(/C=C/c1cc(O)ccc1O)c1ccc(Cl)cc1 , state its measured GI50.
output: > 100000 nM

input: Entry COc1ccc2cn3c4ccc(O)cc4[nH]c(=O)c3c2c1 needs its GI50 filled in; supply it.
output: 11600 nM
